- ASSAY: in vivo
- TEST CONDITIONS: dog, iv, 1 mg/kg
ENDPOINT LABEL: half-life (h)
One number for each entry, in h.

Quick note, half-life for "Cc1cnc(NCC(F)(F)c2ccccn2)c(=O)n1CC(=O)NCc1ncccc1F" landed at 3.5

* * *

- ASSAY: Oral bioavailability in african green monkey after administration of 5 mg/kg of compound
- Assay type: ADME, organism-based
- TEST CONDITIONS: chlorocebus aethiops, in vivo
ENDPOINT LABEL: bioavailability (%)
Numbers only, in %.

Quick note, bioavailability for O=C(Cn1c(Cl)cnc(NCC(F)(F)c2ccccn2)c1=O)NCc1ncccc1F [DPOC-4088] landed at 66

* * *

Provide the reported Ki of each item.
- SYSTEM: UniProt P00734
# output: number + unit

Use these answered entries as a reference point.
- COMPOUND: "Cc1nc(N)ccc1CNC(=O)Cn1c(C)cnc(NCC(C)c2ccccc2)c1=O (stereo unspecified)"
  SYSTEM: "UniProt P00734"
  Ki: "1.1 nM"
- COMPOUND: "Cc1nc(N)ccc1CNC(=O)Cn1c(C)cnc(NCCc2cccnc2)c1=O"
  SYSTEM: "UniProt P00734"
  Ki: "0.54 nM"
- COMPOUND: "O=C(Cn1c(Cl)cnc(NCC(F)(F)c2ccccn2)c1=O)NCc1ncccc1Cl"
  SYSTEM: "UniProt P00734"
  Ki: "7.9 nM"
- COMPOUND: "Cc1nc(N)ccc1CNC(=O)Cn1c(C)cnc(NCCc2ccncc2)c1=O"
  SYSTEM: "UniProt P00734"
  Ki: "1.6 nM"
- COMPOUND: "Cc1ccnc(CNC(=O)Cn2c(C#N)cnc(NCC(F)(F)c3ccccn3)c2=O)c1F"
  SYSTEM: "UniProt P00734"
  Ki: "0.4 nM"
- COMPOUND: "COc1ccnc(CNC(=O)Cn2c(Cl)cnc(NCC(F)(F)c3ccccn3)c2=O)c1"
  SYSTEM: "UniProt P00734"
  Ki: "3.6 nM"

Need Ki for each of these compounds.
1. Cc1cnc(NCC(F)(F)c2ccccc2)c(=O)n1CC(=O)NCc1ncccc1F
2. N#Cc1cnc(NCC(F)(F)c2ccccn2)c(=O)n1CC(=O)NCc1ncccc1F
3. Cc1ccnc(CNC(=O)Cn2c(C)cnc(NCC(F)(F)c3ccccn3)c2=O)c1
4. Cc1cnc(NCC(F)(F)c2ccccc2)c(=O)n1CC(=O)NCc1cc(Cl)ccn1
5. Cc1nc(N)ccc1CNC(=O)Cn1c(C)cnc(NCCc2ccccn2)c1=O

Key:
1. 6.8 nM
2. 2.3 nM
3. 2.8 nM
4. 1.3 nM
5. 0.27 nM

* * *

- SYSTEM: Serine protease 1 (Homo sapiens, UniProt P07477)
- Sequence (P07477 whole entry): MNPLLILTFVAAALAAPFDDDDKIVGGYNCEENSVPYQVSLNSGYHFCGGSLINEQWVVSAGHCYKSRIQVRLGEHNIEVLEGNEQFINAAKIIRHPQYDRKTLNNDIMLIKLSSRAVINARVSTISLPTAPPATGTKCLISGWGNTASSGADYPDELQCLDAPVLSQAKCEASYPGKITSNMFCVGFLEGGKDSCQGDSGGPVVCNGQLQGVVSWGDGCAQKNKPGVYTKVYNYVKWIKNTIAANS
- ASSAY: Inhibitory constant against human trypsin
Provide the reported pKi of each item.
One number for each entry, as −log10 of the molar value.

Use these answered entries as a reference point.
- MOL SMILES: "Cc1ccnc(CNC(=O)Cn2c(C)cnc(NCC(F)(F)c3ccccc3)c2=O)c1F"
  VAL: 4.40
- MOL SMILES: "Cc1ccnc(CNC(=O)Cn2c(C)cnc(NCC(F)(F)c3ccccc3)c2=O)c1"
  VAL: 3.57
- MOL SMILES: "O=C(Cn1c(C(F)(F)F)cnc(NCC(F)(F)c2ccccn2)c1=O)NCc1ncccc1F"
  VAL: 3.87

Need pKi for each of these compounds.
1. Cc1nc(N)ccc1CNC(=O)Cn1c(C)cnc(NCCc2cccnc2)c1=O
2. Cc1nc(N)ccc1CNC(=O)Cn1c(C)cnc(NCCc2ccccn2)c1=O
3. COc1cccnc1CNC(=O)Cn1c(Cl)cnc(NCC(F)(F)c2ccccn2)c1=O
4. Cc1cnc(NCC(F)(F)c2ccccc2)c(=O)n1CC(=O)NCc1ncccc1F

Key:
[5.42, 5.44, 3.15, 3.30]
